Biological target: T1, HTRA4, P83105
T1 sequence (P83105 378-476, limits assumed, looked up): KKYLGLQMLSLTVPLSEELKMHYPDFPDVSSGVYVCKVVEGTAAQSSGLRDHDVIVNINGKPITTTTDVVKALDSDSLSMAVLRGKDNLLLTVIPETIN
Experiment: holdup assay
Parameters: key: below the threshold = too weak to quantify, mostly under pKd 3.1 to 4
Settings: plain residues with an end cap or a label only (N-terminal biotin on a linker: ado-ado)
measured-attribute: pKd

# annotated cases, reported pKd shown
>>> df
                          binder  measured_attribute       endpoint_value
0  EAVTVESTSL [SLC22A11, Q9NSA0]                 pKd  below the threshold
1      THREVKFTSL [CD46, P15529]                 pKd  below the threshold
2     AHGSTRDQSI [KCNB1, Q14721]                 pKd  below the threshold
3    PLATCDETSI [SEMA4F, O95754]                 pKd  below the threshold
4    IQISELETNV [SLC1A7, O00341]                 pKd                  3.9
5    HYPASPDSWV [CTNND2, Q9UQB3]                 pKd                 4.06
6     KLQNPNQSVV [TYRP1, P17643]                 pKd                 3.94
7     ELKAEDEVQI [DCHS2, Q6V1P9]                 pKd  below the threshold

Give pKd for each listed item.
1. GNDPDRGTSI [GRID2, O43424]
2. SQDPKKPSRV [CBY2, Q8NA61]
3. WAKEKQHTRL [SLC17A1, Q14916]
4. PEKVSNTTVV [IGSF5, Q9NSI5]

Response:
below the threshold
3.9
below the threshold
below the threshold
